biological target: GSK3β (H350L) (Homo sapiens (Human)); details: read-out: GSK3β Ki
Sequence (P49841 whole entry, stated change not applied): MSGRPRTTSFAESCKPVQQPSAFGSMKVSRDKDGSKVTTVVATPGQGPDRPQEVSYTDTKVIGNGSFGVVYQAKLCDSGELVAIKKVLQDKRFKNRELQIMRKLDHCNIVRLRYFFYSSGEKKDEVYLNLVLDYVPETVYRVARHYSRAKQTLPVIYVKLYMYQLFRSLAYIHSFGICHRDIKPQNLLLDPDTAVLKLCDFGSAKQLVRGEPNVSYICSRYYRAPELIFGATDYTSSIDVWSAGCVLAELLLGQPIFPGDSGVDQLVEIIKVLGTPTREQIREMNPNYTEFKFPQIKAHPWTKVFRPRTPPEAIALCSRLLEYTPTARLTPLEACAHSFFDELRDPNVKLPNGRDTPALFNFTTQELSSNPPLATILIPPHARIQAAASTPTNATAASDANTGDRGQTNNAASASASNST
test-readout: log10(Ki) (log10 of the value in µM)

>  <compound>
CC[C@H](C)NC(=O)O[C@@H]1CC[C@H](c2cc(NC(=O)c3ccnn3C)n[nH]2)C1

>  <observed-measurement>
-1.46

$$$$
>  <compound>
CC[C@H](C)NC(=O)O[C@@H]1CC[C@H](c2cc(NC(=O)Cc3ccc(C)nc3)n[nH]2)C1

>  <observed-measurement>
-1.90

$$$$
>  <compound>
CC[C@H](C)NC(=O)O[C@@H]1CC[C@H](c2cc(NC(=O)c3cnnn3C)n[nH]2)C1

>  <observed-measurement>
-0.96

$$$$
>  <compound>
C[C@H]1CCCN1C(=O)O[C@@H]1CC[C@H](c2cc(NC(=O)Cc3ccn(C)n3)n[nH]2)C1 [Example 631]

>  <observed-measurement>
-1.93

$$$$
>  <compound>
CCN(C)C(=O)O[C@@H]1CC[C@H](c2cc(NC(=O)Cc3ccc(F)cc3)n[nH]2)C1

>  <observed-measurement>
-1.83

$$$$
>  <compound>
COc1cc(CC(=O)Nc2cc([C@@H]3CC[C@H](OC(=O)N4C[C@H](O)[C@H]4C)C3)[nH]n2)ccn1

>  <observed-measurement>
-1.86

$$$$
>  <compound>
COc1ccc(CC(=O)Nc2cc([C@H]3CC[C@@H](OC(=O)NC(C)(C)C)C3)[nH]n2)cn1

>  <observed-measurement>
-2.25

$$$$
>  <compound>
C[C@H]1CCN1C(=O)O[C@@H]1CC[C@H](c2cc(NC(=O)c3cnnn3C)n[nH]2)C1

>  <observed-measurement>
-1.29

$$$$
>  <compound>
CC[C@H](C)NC(=O)O[C@@H]1CC[C@H](c2cc(NC(=O)Cc3cnn(C)n3)n[nH]2)C1

>  <observed-measurement>
-1.07

$$$$
>  <compound>
COc1ccc(CC(=O)Nc2cc([C@H]3CC[C@@H](OC(=O)N4C[C@@](C)(O)[C@@H]4C)C3)[nH]n2)cn1

>  <observed-measurement>
-2.56

$$$$
>  <compound>
CC[C@H](C)NC(=O)O[C@@H]1CC[C@H](c2cc(NC(=O)Cc3cnc(C(F)(F)F)cn3)n[nH]2)C1

>  <observed-measurement>
-1.28

$$$$
>  <compound>
CCCNC(=O)O[C@@H]1CC[C@H](c2cc(NC(=O)Cc3cnc(C)o3)n[nH]2)C1

>  <observed-measurement>
-1.34

$$$$
>  <compound>
CC[C@H](C)NC(=O)O[C@@H]1CC[C@H](c2cc(NC(=O)Cc3cc(C)on3)n[nH]2)C1

>  <observed-measurement>
-1.21

$$$$

* * *

target: CDK2/Cyclin E1 full length (Homo sapiens (Human)); test: CDK2/Cyclin E1 full length mobility shift assay
// assign Met if Ki falls strictly below 0.9 nM, else Not met (ties count as Not met)

>  <molecule>
Cc1nc(CC(=O)Nc2cc([C@H]3CC[C@@H](OC(=O)NC(C)(C)C)C3)[nH]n2)ccc1Cl

>  <target-entity>
CDK2/Cyclin E1 full length (Homo sapiens (Human))

>  <label-value>
Met

$$$$
>  <molecule>
CCCNC(=O)O[C@H]1CC[C@@H](c2cc(Nc3ccc4c(n3)CC[C@@H]4N(C)C)n[nH]2)C1

>  <target-entity>
CDK2/Cyclin E1 full length (Homo sapiens (Human))

>  <label-value>
Met

$$$$
>  <molecule>
Cn1cc(CC(=O)Nc2cc([C@H]3CC[C@@H](OC(=O)NCCC(F)(F)F)C3)[nH]n2)cn1

>  <target-entity>
CDK2/Cyclin E1 full length (Homo sapiens (Human))

>  <label-value>
Met

$$$$
>  <molecule>
CC[C@H](C)NC(=O)O[C@@H]1CC[C@H](c2cc(NC(=O)Cc3cc(C)nn3C)n[nH]2)C1

>  <target-entity>
CDK2/Cyclin E1 full length (Homo sapiens (Human))

>  <label-value>
Not met

$$$$
>  <molecule>
CC[C@H](C)NC(=O)O[C@@H]1CC[C@H](c2cc(NC(=O)Cc3cn4cccnc4n3)n[nH]2)C1

>  <target-entity>
CDK2/Cyclin E1 full length (Homo sapiens (Human))

>  <label-value>
Not met

$$$$
>  <molecule>
CC(C)(C)NC(=O)O[C@@H]1CC[C@H](c2cc(NC(=O)Cc3cc(C(F)(F)F)ccn3)n[nH]2)C1

>  <target-entity>
CDK2/Cyclin E1 full length (Homo sapiens (Human))

>  <label-value>
Not met

$$$$
>  <molecule>
CCCNC(=O)O[C@@H]1CC[C@H](c2cc(NC(=O)Cc3cnc(OC)s3)n[nH]2)C1

>  <target-entity>
CDK2/Cyclin E1 full length (Homo sapiens (Human))

>  <label-value>
Met

$$$$
>  <molecule>
COc1cnc(CC(=O)Nc2cc([C@H]3CC[C@@H](OC(=O)NC4(C)CCOC4)C3)[nH]n2)cn1 (single isomer, unassigned) [Example 485]

>  <target-entity>
CDK2/Cyclin E1 full length (Homo sapiens (Human))

>  <label-value>
Not met

$$$$
>  <molecule>
Cc1ncc(CC(=O)Nc2cc([C@H]3CC[C@@H](OC(=O)NCC(F)(F)F)C3)[nH]n2)s1

>  <target-entity>
CDK2/Cyclin E1 full length (Homo sapiens (Human))

>  <label-value>
Not met

$$$$
>  <molecule>
C[C@H](NC(=O)O[C@@H]1CC[C@H](c2cc(NC(=O)Cc3cnn(C)c3)n[nH]2)C1)[C@@H](C)F

>  <target-entity>
CDK2/Cyclin E1 full length (Homo sapiens (Human))

>  <label-value>
Met

$$$$
>  <molecule>
Cn1cc(CC(=O)Nc2cc([C@H]3CC[C@@H](OC(=O)N4CCC4(C)C)C3)[nH]n2)cn1

>  <target-entity>
CDK2/Cyclin E1 full length (Homo sapiens (Human))

>  <label-value>
Met

$$$$
>  <molecule>
Cc1cc(CC(=O)Nc2cc([C@H]3CC[C@@H](OC(=O)NC4(C)CC4)C3)[nH]n2)ncc1Cl

>  <target-entity>
CDK2/Cyclin E1 full length (Homo sapiens (Human))

>  <label-value>
Not met

$$$$
>  <molecule>
COc1cc(CC(=O)Nc2cc([C@H]3CC[C@@H](OC(=O)NC(C)CC(F)(F)F)C3)[nH]n2)ccn1 (single isomer, unassigned) [Example 78]

>  <target-entity>
CDK2/Cyclin E1 full length (Homo sapiens (Human))

>  <label-value>
Met

$$$$
>  <molecule>
CCC(CO)CNC(=O)O[C@@H]1CC[C@H](c2cc(NC(=O)Cc3ccc(OC)cc3)n[nH]2)C1 (single isomer, unassigned) [Example 530]

>  <target-entity>
CDK2/Cyclin E1 full length (Homo sapiens (Human))

>  <label-value>
Not met

$$$$

* * *

Each entry below carries its reported pKi.
target: CDK2/Cyclin E1 full length (Homo sapiens (Human)); test: CDK2/Cyclin E1 full length mobility shift assay
pKi: −log10 of the molar value.

>  <molecule>
COc1ccc(CC(=O)Nc2cc([C@H]3CC[C@@H](OC(=O)N(C)C(C)C)C3)[nH]n2)cn1 [Example 59]

>  <pKi>
9.82

$$$$
>  <molecule>
CC(CC(F)(F)F)N(C)C(=O)O[C@@H]1CC[C@H](c2cc(NC(=O)Cc3cnn(C)c3)n[nH]2)C1 (single isomer, unassigned) [Example 413]

>  <pKi>
9.36

$$$$
>  <molecule>
CCCNC(=O)O[C@@H]1CC[C@H](c2cc(NC(=O)Cc3cc(C)ncc3S(C)(=O)=O)n[nH]2)C1 [Example 208]

>  <pKi>
8.50

$$$$
>  <molecule>
COc1ncccc1CC(=O)Nc1cc([C@H]2CC[C@@H](OC(=O)NC(C)(C)C)C2)[nH]n1 [Example 307]

>  <pKi>
9.14

$$$$
>  <molecule>
CCCNC(=O)O[C@@H]1CC[C@H](c2cc(NC(=O)Cc3ccccc3S(=O)(=O)C3CC3)n[nH]2)C1 [Example 210]

>  <pKi>
8.42

$$$$
>  <molecule>
O=C(Cc1ccno1)Nc1cc([C@H]2CC[C@@H](OC(=O)NC3CCCC3)C2)[nH]n1 [Example 460]

>  <pKi>
8.79

$$$$
>  <molecule>
CCCNC(=O)O[C@@H]1CC[C@H](c2cc(NC(=O)Cc3ccc(OC)nc3)n[nH]2)C1 [Example 188]

>  <pKi>
9.36

$$$$
>  <molecule>
CCNC(=O)O[C@@H]1CC[C@H](c2cc(NC(=O)Cc3cccc4ncsc34)n[nH]2)C1 [Example 235]

>  <pKi>
8.63

$$$$
>  <molecule>
Cc1ncc(CC(=O)Nc2cc([C@H]3CC[C@@H](OC(=O)NC(C)C(C)(F)F)C3)[nH]n2)s1 (single isomer, unassigned) [Example 390]

>  <pKi>
8.43

$$$$
>  <molecule>
COc1ccc(CC(=O)Nc2cc([C@H]3CC[C@@H](OC(=O)NC4(C)CCOC4)C3)[nH]n2)cn1 (single isomer, unassigned) [Example 122]

>  <pKi>
9.66

$$$$
>  <molecule>
COc1cc(CC(=O)Nc2cc([C@H]3CC[C@@H](OC(=O)N4[C@H](C)C[C@H]4C)C3)[nH]n2)ccn1 [Example 609]

>  <pKi>
8.32

$$$$
>  <molecule>
CC[C@H](C)NC(=O)O[C@@H]1CC[C@H](c2cc(NC(=O)Cc3cnn(C)c3C(F)(F)F)n[nH]2)C1 [Example 365]

>  <pKi>
8.68

$$$$
>  <molecule>
O=C(Cc1cc(F)cc(F)c1)Nc1cc([C@@H]2CC[C@H](OC(=O)NCC3CCOCC3)C2)[nH]n1 [Example 513]

>  <pKi>
8.50

$$$$
>  <molecule>
COc1cccc(CC(=O)Nc2cc([C@H]3CC[C@@H](OC(=O)NC4(C)CC4)C3)[nH]n2)n1 [Example 434]

>  <pKi>
9.32

$$$$
